Field: IC50. Provide a value for each of the molecules that follow.
# System: Target C
# Assay procedure: RT-qPCR canonical junction panel assay, Target C mRNA
# Type: cell-based
# Assay setup: Table 4, read-out: Target C IC50 (decrease in CJ mRNA levels)

Record summary for Cn1cc2cc(-c3ccc4nc(N5CC[C@H](N[C@H]6C[C@H](F)C6)C5)ccc4n3)c(O)c(F)c2n1 (single isomer, unassigned) [Compound 347] : reported IC50 = < 100 nM

Record summary for Cc1c(O)c(-c2ccc3nc(N4CC[C@H](NC5CC5)C4)ncc3n2)cc2cn(C)nc12 [Compound 439] : reported IC50 = 100 to 1000 nM

Record summary for C[C@@H]1CN(c2ccc3nc(-c4cc5cn(C)nc5c(F)c4O)nc(C(=O)NCCO)c3c2)C[C@H](C)N1 [Compound 737] : reported IC50 = 1000 to 10000 nM

Record summary for Cc1nc(-c2cc3cn(C)nc3c(C)c2O)nc2ccc(N3C[C@@H](C)N[C@@H](C)C3)cc12 [Compound 783] : reported IC50 = > 10000 nM

Record summary for Cn1cc2cc(-c3ccc4nc(N5CCC(NC6CC6)C5)ccc4n3)c(O)c(F)c2n1 (racemic) [Compound 287, trifluoroacetic acid] : reported IC50 = < 100 nM

Record summary for Cc1c(O)c(-c2ccc3nc(N4CC[C@H](NCC5CC5)C4)ccc3n2)cc2cn(C)nc12 (single isomer, unassigned) [Compound 321] : reported IC50 = < 100 nM

Record summary for CCN(CC)C1CCN(c2ccc3nc(-c4cc5cn(C)nc5c(F)c4O)ncc3c2)CC1 [Compound 756] : reported IC50 = 100 to 1000 nM

Record summary for CC(C)(C)NC1CCN(c2ccc3nc(-c4cc5oc(C6CC6)nc5cc4O)ccc3n2)C1 (stereo not drawn) [Compound 333] : reported IC50 = 100 to 1000 nM

Record summary for Cc1c(O)c(-c2nc(-c3cncs3)c3cc(N4CCNCC4)ccc3n2)cc2cn(C)nc12 [Compound 519] : reported IC50 = > 10000 nM

Record summary for Cn1cc2cc(-c3ccc4nc(N5CC[C@@H](NCC6CC6)C5)ccc4n3)c(O)c(F)c2n1 (single isomer, unassigned) [Compound 303] : reported IC50 = < 100 nM

Record summary for Cc1c(O)c(-c2ncc3cc(N4C[C@@H](C)NC5(CC5)C4)ccc3n2)cc2cn(C)nc12 (single isomer, unassigned) [Compound 811] : reported IC50 = > 10000 nM

Record summary for Cc1c(O)c(-c2nc(-c3nn[nH]n3)c3cc(N4CCNCC4)ccc3n2)cc2cn(C)nc12 [Compound 541] : reported IC50 = 1000 to 10000 nM

Record summary for Cn1cc2cc(-c3ccc4nc(N5CC[C@H](NC6CC6)C5)ccc4n3)c(O)c(F)c2n1 (single isomer, unassigned) [Compound 306] : reported IC50 = < 100 nM

Record summary for Cn1cc2cc(-c3ccc4nc(C5CCNC[C@H]5O)ccc4n3)c(O)cc2n1 (single isomer, unassigned) [Compound 386] : reported IC50 = > 10000 nM

Record summary for Cc1nc2c(F)c(O)c(-c3ccc4nc(N5CCC(NC6(C)CC6)C5)ccc4n3)cc2o1 (stereo in doubt) [Compound 327] : reported IC50 = < 100 nM

====

# Tested on: HTT
# Assay procedure: HiBiT protein abundance assay, HTT (K562 HiBiT knock-in)
# Assay type: cell-based, human
# Assay setup: HiBiT knock-in K562 cells, 24 hours, top dose 10 μM
# Method: Compounds described herein were used to screen for effects on quantitative protein abundance using a HiBit assay system (Promega). Quantitative protein abundance was determined by measuring the protein levels of HiBit-tagged protein targets expressed in cell culture via luminescence using the Nano-Glo HiBiT Lytic Detection System, which uses a split complementation assay format to reconstitute NanoBiT enzyme to generate a luminescent signal. […]
pIC50: −log10 of the molar value. Where a name gives a salt, the structure may show the parent alone.
Measure name: pIC50

Record summary for CC(=O)c1nc(-c2cc3cn(C)nc3c(F)c2O)nc2ccc(N3C[C@@H](C)N[C@@H](C)C3)cc12 : reported pIC50 = 6.00 to 7.00

Record summary for Cn1cc2cc(-c3ccc4nc(N5CCC(NC6CCC6)C5)ccc4n3)c(O)c(F)c2n1 (centres unmarked) : reported pIC50 = > 7.00

Record summary for Cn1cc2cc(-c3ccc4nc(N5CC[C@H](NC6CCC6)C5)ccc4n3)c(O)cc2n1 : reported pIC50 = > 7.00

Record summary for Cc1cn2nc(-c3ccc4nc(N5CCC(NC(C)(C)C)C5)ccc4n3)cc2c(C)n1 (centres unmarked) : reported pIC50 = > 7.00

Record summary for Cc1nc2c(C)c(O)c(-c3ccc4nc(N5CC[C@H](NC6CC6)C5)ccc4n3)cc2o1 : reported pIC50 = > 7.00

Record summary for Cc1nc2cc(O)c(-c3ccc4nc(N5CC[C@H](NC6(CF)CC6)C5)ccc4n3)cc2o1 (single isomer, unassigned) : reported pIC50 = > 7.00

Record summary for Cn1cc2cc(-c3ccc4nc(N5CCC(N)C5)ccc4n3)c(O)c(F)c2n1 (stereo in doubt) [Compound 363] : reported pIC50 = > 7.00

Record summary for Cc1nc2cc(O)c(-c3ccc4nc(N5CC[C@@H](NC6(C)CC6)C5)ccc4n3)cc2o1 : reported pIC50 = 6.00 to 7.00

Record summary for Cc1nc2cc(O)c(-c3ccc4nc(N5CC[C@@H](NC(C)(C)C)C5)ncc4n3)cc2o1 : reported pIC50 = > 7.00

Record summary for Cc1c(O)c(-c2nc(-c3c[nH]nn3)c3cc(N4CCNCC4)ccc3n2)cc2cn(C)nc12 [Compound 538, hydrochloride] : reported pIC50 = 5.00 to 6.00

Record summary for Cc1nc2c(F)c(O)c(-c3ccc4nc(N5CC[C@@H](NC(C)C)C5)ccc4n3)cc2o1 (single isomer, unassigned) : reported pIC50 = > 7.00

Record summary for Cc1nc2c(F)c(O)c(-c3ccc4nc(N5CC[C@H](NC(C)C)C5)ccc4n3)cc2o1 (single isomer, unassigned) : reported pIC50 = > 7.00

Record summary for Cc1c(O)c(-c2ccc3nc(N4CCC(NC5(CF)CC5)C4)ccc3n2)cc2cn(C)nc12 (centres unmarked) : reported pIC50 = > 7.00

Record summary for CN1CCC(c2ccc3nc(-c4cc5cn(C)nc5cc4O)ccc3n2)CC1 : reported pIC50 = 6.00 to 7.00

====

Field: pIC50. Provide a value for each of the compounds that follow.
# System: HTT
# Assay procedure: HiBiT protein abundance assay, HTT (K562 HiBiT knock-in)
# Type: cell-based, human
# Assay setup: HiBiT knock-in K562 cells, 24 hours, top dose 10 μM
pIC50: −log10 of the molar value.

Record summary for CNC(=O)c1nc(-c2cc3cn(C)nc3cc2O)nc2ccc(N3CCN[C@@H](C)C3)cc12 : reported pIC50 = 6.00 to 7.00

Record summary for Cc1nc2c(C)c(O)c(-c3ccc4nc(N5CC[C@@H](N[C@H]6C[C@H](F)C6)C5)ccc4n3)cc2o1 (single isomer, unassigned) : reported pIC50 = > 7.00

Record summary for Cc1nc2cc(O)c(-c3ccc4nc(N5CCC(NC(C)(C)C)C5)ccc4n3)cc2s1 (stereo not shown) : reported pIC50 = < 5.00

Record summary for CN(C(=O)Nc1cn[nH]c1)c1cc2nc(N3CCNCC3)ccc2cn1 : reported pIC50 = < 5.00

Record summary for CNC1CCN(c2ccc3nc(-c4cc5cn(C)nc5c(C)c4O)ncc3n2)C1 (stereo not shown) : reported pIC50 = 6.00 to 7.00

Record summary for Cc1c(O)c(-c2ccc3nc(N4CC[C@H](NC5CC5)C4)ncc3n2)cc2cn(C)nc12 : reported pIC50 = > 7.00

Record summary for Cn1cc2cc(-c3ccc4nc(C5CCNCC5)ccc4n3)c(C#N)cc2n1 : reported pIC50 = 5.00 to 6.00

Record summary for Cc1nc2cc(O)c(-c3ccc4nc(N5CCN[C@@H](C)C5)ccc4n3)cc2o1 : reported pIC50 = 6.00 to 7.00

Record summary for CC1CN(c2ccc3nc(-c4cc5cn(C)nc5cc4O)ccc3n2)CCN1 (stereo not shown) : reported pIC50 = 6.00 to 7.00

Record summary for Cc1cc(N2C[C@@H](C)N[C@@H](C)C2)cc2c(Cl)cc(-c3cc4cn(C)nc4c(F)c3O)nc12 : reported pIC50 = > 7.00

Record summary for Cc1c(O)c(-c2ccc3nc(N4CCC(NC(C)(C)C)C4)ccc3n2)cc2cn(C)nc12 (stereo not shown) : reported pIC50 = > 7.00

Record summary for Cn1cc2cc(-c3ccc4nc(N5CC[C@H](NC6COC6)C5)ccc4n3)c(O)cc2n1 : reported pIC50 = 5.00 to 6.00

Record summary for CN[C@@H]1CCN(c2ccc3nc(-c4cn5cc(C)nc5c(C)c4O)ncc3n2)C1 (single isomer, unassigned) : reported pIC50 = 6.00 to 7.00

Record summary for Cc1nc2cc(O)c(-c3ccc4nc(N5CC[C@H](N[C@H]6C[C@H](F)C6)C5)ccc4n3)cc2o1 : reported pIC50 = > 7.00

Record summary for C[C@H]1CN(c2cc(F)c3nc(-c4cc(F)c5nn(C)cc5c4)ccc3c2)C[C@H](C)N1 (single isomer, unassigned) : reported pIC50 = 6.00 to 7.00

Record summary for CNc1nc(-c2cc3cn(C)nc3c(C)c2O)nc2ccc(N3CCNCC3)cc12 : reported pIC50 = < 5.00

Record summary for CC(C)N[C@H]1CCN(c2ccc3nc(-c4cc5cn(C)nc5cc4O)ccc3n2)C1 : reported pIC50 = > 7.00

Record summary for Cn1cc2cc(-c3ccc4nc(N5CC[C@@H](NC6CCC6)C5)ccc4n3)c(O)cc2n1 : reported pIC50 = > 7.00

Record summary for CCN[C@@H]1CCN(c2ccc3nc(-c4cc5cn(C)nc5cc4O)ccc3n2)C1 : reported pIC50 = > 7.00
